Biological target: T1, soluble recombinant human lymphotoxin α1β2 (human, UniProt P01374 35-205, limits assumed)
T1 sequence 1: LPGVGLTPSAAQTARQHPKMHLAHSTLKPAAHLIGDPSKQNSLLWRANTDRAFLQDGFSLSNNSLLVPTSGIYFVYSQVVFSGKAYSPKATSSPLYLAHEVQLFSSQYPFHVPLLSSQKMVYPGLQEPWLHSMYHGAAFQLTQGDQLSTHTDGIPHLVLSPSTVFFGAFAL
T1 sequence 2: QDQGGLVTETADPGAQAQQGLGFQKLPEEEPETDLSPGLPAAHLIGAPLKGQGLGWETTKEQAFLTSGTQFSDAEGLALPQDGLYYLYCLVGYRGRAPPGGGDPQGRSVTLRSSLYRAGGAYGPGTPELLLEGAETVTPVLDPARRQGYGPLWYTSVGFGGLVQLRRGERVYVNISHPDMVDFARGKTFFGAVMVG
Assay: cell-based or functional assay
Measured Parameter: IC50 nM, inhibition of IL-8 release (nM)

[
  {
    "Binder": "9B4 (antibody, V domains shown, Murine monoclonal antibody, kappa light chain; also called LT 9B4; LT9B4) VH: QVTLKESGPGILQPSQTLSLTCSFSGFSLSTSGMGVSWIRQPSGKGLEWLAHIYWDDDKRYNPSLRSRLTISKDTSRNQVFLKITSVDTADTATYYCARREGYYGSSFDFDVWGAGTTVTVSS VL: QIVLSQSPAILSASPGEKVTMTCRASSSVSYMIWYQQKPGSSPKPWIYATSSLASGVPTRFSGSGSGTSYSLTISRVEAADAATYYCQQWSYNPLTFGAGTKLELK",
    "Measured": 0.6
  },
  {
    "Binder": "LT108 (P4F2.2) (antibody, V domains shown, also called mAb LT108) VH: QVQLKQSGPGLVQPSQSLSITCTVSGFSLTDYGIHWIRQPPGKGLEWLGVIWSGGSTDHNAVFTSRLNISKDNSKSQVFFKMNSLEPDDTAMYYCARNRAYYRYEGGMDYWGQGTSVTVSS VL: DIKMTQSPSSMYASLGERVTITCKASQDINTYLNWFQQKPGKSPMTLIYRADRLLDGVPSRFSGSGSGQDYSLTISSLEDEDMGIYYCQQYDDFPLTFGAGTKLELK",
    "Measured": 1.3
  },
  {
    "Binder": "A0D9 (antibody, V domains shown, Murine monoclonal antibody, kappa light chain; also called mAb A0D9; AOD9) VH: QVQLKQSGPGLVQPSQSLSITCTVSGFSLSTYGVHWVRQFPGKGLEWLGVIWRGGNTNYNAAFMSRLTISKDNSKSQVFFKMNSLQAKDTAIYYCVRNQIYDGYYDYAMDYWGQGTSVTVSS VL: DIKMTQSPSSMYASLGERVTITCKASQDINTYLNWLQQKPGKSPKTLIYRANRLVDGVPSRFSGRGSGQDYSLTISSLEYEDVGIYYCLHYDAFPWTFGGGTKLEIK",
    "Measured": 1.67
  }
]
